Biological target: T1, murine KDR-Fc fusion (R&D Systems #443-KD-050) (murine, UniProt P35918 20-762)
T1 construct: bought; also called recombinant murine KDR-Fc; rmKDR-Fc
T1 sequence (P35918 20-762): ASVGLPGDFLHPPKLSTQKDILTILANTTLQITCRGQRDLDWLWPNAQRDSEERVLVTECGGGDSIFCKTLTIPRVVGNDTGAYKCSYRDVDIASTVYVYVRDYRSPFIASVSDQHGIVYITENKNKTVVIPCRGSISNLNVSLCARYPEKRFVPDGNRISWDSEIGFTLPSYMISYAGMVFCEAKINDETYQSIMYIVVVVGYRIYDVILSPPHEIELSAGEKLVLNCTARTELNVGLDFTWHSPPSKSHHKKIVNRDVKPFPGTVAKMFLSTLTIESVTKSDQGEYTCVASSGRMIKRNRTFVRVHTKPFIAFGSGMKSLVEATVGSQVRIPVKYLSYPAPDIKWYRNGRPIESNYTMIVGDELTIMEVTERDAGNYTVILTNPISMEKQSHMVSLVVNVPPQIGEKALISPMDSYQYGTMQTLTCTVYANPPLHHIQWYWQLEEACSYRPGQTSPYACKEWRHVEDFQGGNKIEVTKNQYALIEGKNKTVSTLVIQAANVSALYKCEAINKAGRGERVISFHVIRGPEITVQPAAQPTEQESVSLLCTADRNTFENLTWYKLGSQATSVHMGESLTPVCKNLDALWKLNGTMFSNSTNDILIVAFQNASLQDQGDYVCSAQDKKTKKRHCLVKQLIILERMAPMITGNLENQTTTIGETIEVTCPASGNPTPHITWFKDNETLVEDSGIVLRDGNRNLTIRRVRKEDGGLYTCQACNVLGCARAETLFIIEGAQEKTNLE
Assay: BIAcore, KD1 = kd1/ka1, fluorescein-labeled peptide, murine KDR-Fc 2700RU
Bridge positions count the residues as written; N and C are the ends.

| BINDER | Kd |
| --- | --- |
| Ac-AGPTWCEDDWYYCWLFGTGGGK-NH2 (disulfide 6-13 (inferred); not fully specified) [SEQ ID NO:277] | 36.4 nM |
